# Tested on: RARb homodimer (NR concentration 270 nM)
# TEST METHOD NOTES: PBM binding z-score (relative to random genomic background probes); higher = stronger binding; sequences stand for … in GC…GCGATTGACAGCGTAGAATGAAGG
Range-based classes on measured PBM binding z-score: Low = under 0.8, Mid = from 0.8 up to 3, High = 3 and over

-- ask Into which category would you place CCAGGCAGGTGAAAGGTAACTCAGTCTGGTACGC ?
-- reply Low

-- ask Into which category would you place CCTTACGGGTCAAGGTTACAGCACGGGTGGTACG ?
-- reply High

-- ask Into which category would you place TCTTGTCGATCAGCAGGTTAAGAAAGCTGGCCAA ?
-- reply Low

-- ask Into which category would you place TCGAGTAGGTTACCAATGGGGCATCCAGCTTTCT ?
-- reply Mid

-- ask Into which category would you place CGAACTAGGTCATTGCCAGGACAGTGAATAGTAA ?
-- reply Mid

-- ask Into which category would you place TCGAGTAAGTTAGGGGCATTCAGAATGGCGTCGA ?
-- reply Low

-- ask Into which category would you place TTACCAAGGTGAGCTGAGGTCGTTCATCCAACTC ?
-- reply Mid

-- ask Into which category would you place CCTCGGAGGACAGAAGGTCAGAGGTGTCCGCTTT ?
-- reply High

-- ask Into which category would you place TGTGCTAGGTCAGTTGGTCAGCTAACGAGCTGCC ?
-- reply Mid

-- ask Into which category would you place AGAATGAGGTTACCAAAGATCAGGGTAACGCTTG ?
-- reply Mid

-- ask Into which category would you place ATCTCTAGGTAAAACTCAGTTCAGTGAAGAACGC ?
-- reply Low

-- ask Into which category would you place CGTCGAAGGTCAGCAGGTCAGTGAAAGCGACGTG ?
-- reply High
